testedOn: T1, human soluble IL-4Rα (sIL-4Rα) (human, UniProt P24394 26-232)
T1 construct: Bought reagent (PEPRO TECH, Catalog Number 200-04R); also called shIL-4Rα; soluble hIL-4 Rα
T1 sequence: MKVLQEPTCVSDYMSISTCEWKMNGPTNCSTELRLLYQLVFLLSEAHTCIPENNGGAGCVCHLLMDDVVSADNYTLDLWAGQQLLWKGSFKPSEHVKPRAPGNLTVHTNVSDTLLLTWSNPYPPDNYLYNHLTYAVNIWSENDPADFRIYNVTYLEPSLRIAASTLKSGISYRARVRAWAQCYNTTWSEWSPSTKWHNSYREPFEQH
assayProtocol: ELISA, coated sIL-4Rα, culture supernatant
Below, each of the binders is paired with its reported OD 450/OD450Control antibody 1 value.
Just the number, please, no unit after it.

Worked cases, answers included:
binder	experimentalValue
L1011H1000 (antibody, V domains shown, human kappa) VH: EVQLVQSGGGLVHPGGSLRLSCAGSGFTFSRNAMFWVRQAPGKGLEWVSGIGTGGATNYADSVKGRFTISRDNAKNSLYLQMNSLRAEDMAVYYCARGRYYFDYWGQGTLVTVSS VL: EIVLTQSPGTLSLSPGERATLSCRASQSVSNSYLAWYQQKPGQAPRLLIFGASSRAPGIPDRFSGSGSGTDFTLTISRLEPEDFAVYYCQQYGSSPPWTFGQGTKVEIK	0.9
L1022H1000 (antibody, V domains shown, human kappa) VH: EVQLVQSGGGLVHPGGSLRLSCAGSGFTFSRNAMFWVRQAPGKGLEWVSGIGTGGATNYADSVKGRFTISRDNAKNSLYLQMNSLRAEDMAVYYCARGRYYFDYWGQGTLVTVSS VL: EIVLTQSPGTLSLSPGERATLSCRASQSVSNSYLAWYQQKPGQAPRLLIYGASSRATGIPDRFSGSGSGTDFTLTISRLEPEDFAVYYCQQYDHSAGWTFGQGTKVEIK	0.16

Now take the following binder into account.
Give reported OD 450/OD450Control antibody 1 value for L1021H1007 (antibody, V domains shown, human kappa) VH: EVQLVQSGGGLVHPGGSLRLSCAGSGFTFSRNAMFWVRQAPGKGLEWVSGIGTGGATSYADSVKGRFTISRDNAKNSLYLQMNSLRAEDMAVYYCARGRYYFDYWGQGTLVTVSS VL: EIVLTQSPGTLSLSPGERATLSCRASQSVSSSYLAWYQQKPGQAPRLLIFGASSRAPGIPDRFSGSGSGTDFTLTISRLEPEDFAVYYCQQYDHSAGWTFGQGTKVEIK 0.44
